# Test description: NCATS anti-infectives library activity on HEK293 viability as a counter-qHTS vs the C. elegans viability qHTS (AID 1745854);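 further: HEK293 cells exposed to compounds for 24 hr before the viability read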
# Assay context: HEK293 viability counter-screen; series mostly up to 41.8 µM
Inconclusive results are not listed. Active and inactive are the calls of the source. The call rests on the fitted dose curve; in most records, active means well fitted cell-killing curve with a large enough effect; inconclusive means small, poorly fitted or top-dose-only effect; inactive means flat fitted curve, though single readings scatter.
Allowed answers: active, inactive

Example entries begin here.
Structure smiles	Cat
NC(=O)c1cccc2cn(-c3ccc([C@@H]4CCCNC4)cc3)nc12	inactive
Cc1coc2c1C(=O)C(=O)c1c-2ccc2c1CCCC2(C)C	inactive
CN(C)Cc1c(C(=O)NCCOc2ccc(C(=O)NO)cc2)oc2ccccc12	inactive
Nc1ccccc1NC(=O)c1ccc(CNc2nccc(-c3cccnc3)n2)cc1	inactive
Nc1ccccc1NC(=O)c1ccc(CNC(=O)OCc2cccnc2)cc1	inactive

Outcome? CC(C)(C)OC(=O)Nc1ccc(-c2cc(C(=O)NCCCCCCC(=O)NO)no2)cc1 inactive

Outcome? COc1cccc2c(NCc3ccccc3)nc(-n3c(N)nc4ccccc43)nc12 active

---

# Measured on: Tyrosine-protein kinase Yes (Homo sapiens) (UniProt P07947)
# Sequence (P07947 whole entry, looked up): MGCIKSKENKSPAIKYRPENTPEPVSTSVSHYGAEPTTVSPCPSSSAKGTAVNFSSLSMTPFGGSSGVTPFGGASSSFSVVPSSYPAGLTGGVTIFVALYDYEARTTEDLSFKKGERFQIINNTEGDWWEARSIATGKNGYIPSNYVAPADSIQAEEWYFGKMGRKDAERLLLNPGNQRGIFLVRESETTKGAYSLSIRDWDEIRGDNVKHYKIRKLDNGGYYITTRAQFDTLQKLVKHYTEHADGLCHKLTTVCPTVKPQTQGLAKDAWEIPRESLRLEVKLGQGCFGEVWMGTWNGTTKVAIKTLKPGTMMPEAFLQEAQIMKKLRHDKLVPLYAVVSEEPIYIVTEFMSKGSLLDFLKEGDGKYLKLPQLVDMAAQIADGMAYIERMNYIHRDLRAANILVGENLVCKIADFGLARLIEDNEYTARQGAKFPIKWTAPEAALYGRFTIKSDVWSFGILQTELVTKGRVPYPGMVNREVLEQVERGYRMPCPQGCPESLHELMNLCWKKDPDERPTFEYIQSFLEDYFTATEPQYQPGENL
# Test description: qHTS for small molecule inhibitors of Yes1 kinase: Primary Screen (AID 686947); further: nearly all actives have a fitted effect of over 60% in size
# Assay context: Yes1 kinase biochemical qHTS inhibition; series mostly up to 76.9 µM
Records with an inconclusive call do not appear. Active and inactive are the calls of the source. Calls follow the shape of the dose curve; as a rule, active = well fitted inhibition curve with a large enough effect; inconclusive = small, poorly fitted or top-dose-only effect; inactive = no such curve, though single readings can be large or run the other way.
Allowed answers: active, inactive

Example entries begin here.
Molecule	Cat
CCOc1cc2ncc(C#N)c(Nc3ccc(F)c(Cl)c3)c2cc1NC(=O)C=CCN(C)C	active
C#Cc1cccc(Nc2ncnc3cc(OC)c(OCCCCCCC(=O)NO)cc23)c1	active
C[C@]1(CO)CN(c2cc(C(=O)Nc3ccc4c(c3)-c3c(c(C(N)=O)nn3-c3ccc(F)cc3)CC4)c(Cl)cn2)C[C@@]1(C)CO	inactive

Attention now shifts to the item below.
Outcome? CCN1CCN(CC(=O)Nc2ccc(-c3cccc4c(=O)cc(N5CCOCC5)oc34)c3sc4ccccc4c23)CC1 inactive

---

# Test description: qHTS Screen of the MIPE 4.0 Collection Against Ewings Sarcoma (TC71) (AID 1259253); further: nearly all actives have a fitted effect of over 40% in size; further: potency means the concentration at half of the fitted maximal effect
# Assay context: TC71 Ewing sarcoma viability, CellTiter-Glo, 48 h; series mostly up to 45.8 µM
Results filed as inconclusive are left out. The source made the active and inactive calls. Calls come from the whole dose curve; as a rule, active = well fitted inhibition curve with a large enough effect; inconclusive = small, poorly fitted or top-dose-only effect; inactive = no such curve, though single readings can be large or run the other way.
Metric name: Potency

Use the examples below as a reference point.
Compound	Metric name	Endpoint result
OCc1ccc(-c2ccc(-c3ccc(CO)s3)o2)s1	Potency	26.4 µM (active)
Cc1ccc(S(=O)(=O)Nc2cc(Cl)ccc2C(=O)Nc2nc(-c3ccccc3)cs2)cc1	Potency	13.2 µM (active)
CCn1cc(-c2ccnc3[nH]c(-c4cccc(CN(C)C)c4)cc23)c(-c2ccc(NC(=O)N(C)C)cc2)n1	Potency	3.72 µM (active)
NC(=O)c1cccc2cn(-c3ccc([C@@H]4CCCNC4)cc3)nc12	Potency	3.72 µM (active)
O=C1CCC[C@@H]2[C@H]3CCC[N+]4([O-])CCC[C@@H](CN12)[C@@H]34 (stereo not given in full)	Potency	inactive
CCCCOc1c(C(=O)c2c(F)cc(C)cc2F)cnc2n[nH]cc12	Potency	2.96 µM (active)

Query Nc1ncnc2c1c(-c1cnc3[nH]ccc3c1)nn2C1CCCC1 yields Potency of 0.662 µM (active)

Query C=C1C(=CC=C2CCC[C@]3(C)[C@@H]([C@H](C)C=C[C@H](C)C(C)C)CC[C@@H]23)C[C@@H](O)C[C@@H]1O yields Potency of 0.743 µM (active)

---

We begin with a simple list: items and their reported remaining proliferation (% of control), lower = more inhibition.
# Test description: qHTS profiling for inhibitors of Plasmodium falciparum (HB3) proliferation (AID 743324);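 further: 100% = DMSO vehicle wells and 0% = artemisinin-treated control wells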
# Assay context: Plasmodium falciparum HB3 blood-stage proliferation; at 28.7 µM (top of the series)
Form field: result (number plus unit)

Use the examples below as a reference point.
Structure smiles	Endpoint result
CN(c1ncccc1CNc1nc(Nc2ccc3c(c2)CC(=O)N3)ncc1C(F)(F)F)S(C)(=O)=O	5.89%
Cn1cc(-c2[nH]c3cc(NC(=O)[C@H](N)C4CCCCC4)cc4c3c2C=NNC4=O)cn1	-1.93%
CC(C)c1ccc(Cn2ccc3c4c(N)nc(NC5CC5)nc4ccc32)cc1	-1.47%
CN1CCN(c2cc(C(=O)Nc3ccc4c(c3)-c3c(c(C(N)=O)nn3-c3ccc(F)cc3)CC4)c(Cl)cn2)CC1	-0.224%

Lab note: next compound to report on.
Query CC1(C)OC2=C(C(=O)c3ccccc3C2=O)[C@H](NCc2ccccc2)[C@H]1O yields remaining proliferation (% of control), lower = more inhibition of -1.28%

---

# Test description: qHTS profiling of the MIPE4 collection as inhibitors of Plasmodium falciparum (DD2) proliferation (AID 743345)
# Assay context: P. falciparum Dd2 in erythrocytes, SYBR Green DNA, 72 h; at 28.5 µM (top of the series) unless noted
Hi! Could you tag entries with parasite growth remaining, % of DMSO control (lower = more inhibition) below 30% as YES, and those at or above as NO? Much appreciated.

Example entries begin here.
Compound	Cat
OCc1ccc(-c2ccc(-c3ccc(CO)s3)o2)s1	NO
COCCOc1ccc2c(c1)ncn2-c1ccc2cccc(N3CCC(N)CC3)c2n1	YES
CCCCCN(CCC12CC3CC(CC(C3)C1)C2)C(=O)NCCCc1ccncc1	YES

Could you please tell me whether parasite growth remaining, % of DMSO control (lower = more inhibition) recorded for Cc1ccc(S(=O)(=O)Nc2cc(Cl)ccc2C(=O)Nc2nc(-c3ccccc3)cs2)cc1 is less than 30%? YES

Could you please tell me whether parasite growth remaining, % of DMSO control (lower = more inhibition) recorded for Cc1ccc(-c2ncn(-c3ccc(Nc4nccc(-c5cccc(N6CCOCC6)c5)n4)cc3)n2)cn1 is less than 30%? YES

Could you please tell me whether parasite growth remaining, % of DMSO control (lower = more inhibition) recorded for O=c1c2ccccc2nc2n1CCc1c-2[nH]c2ccccc12 is less than 30%? NO

Could you please tell me whether parasite growth remaining, % of DMSO control (lower = more inhibition) recorded for Nc1cc(C(F)(F)F)c(-c2cc(N3CCOCC3)nc(N3CCOCC3)n2)cn1 is less than 30%? NO

---

# Test description: Quantitative High-Throughput drug screen in 47 multiple myeloma cell lines against the NCATS MIPE library collection: INA6_PLB cell viability assay (AID 1918965; further: potency means the concentration at half of the fitted maximal effect; nearly all actives have a fitted effect of over 55% in size)
# Assay context: INA6 myeloma viability, CellTiter-Glo ATP luminescence, 48 h; series mostly up to 45.8 µM
Records with an inconclusive call do not appear. Activity calls are given as the source filed them. Calls follow the shape of the dose curve; as a rule, active = well fitted cell-killing curve with a large enough effect; inconclusive = small, poorly fitted or top-dose-only effect, or effect the other way; inactive = no such curve, though single readings can be large or run the other way.
We begin with a simple list: items and their reported Potency.

Use the examples below as a reference point.
Compound	Potency
O=C(O)C1(Cc2cccc(Nc3nccs3)n2)CCC(Oc2cccc(Cl)c2F)CC1 (stereo not given)	235 nM (active)
Cc1cc(Nc2cc(NC(=O)c3c(Cl)cccc3Cl)ccn2)nc(N)n1	935 nM (active)
O=c1[nH]nc(Sc2ncc([N+](=O)[O-])s2)n1-c1ccc2c(c1)OCCO2	1180 nM (active)
CCCCOc1c(C(=O)c2c(F)cc(C)cc2F)cnc2n[nH]cc12	4180 nM (active)
CCC[C@H](NC(=O)C(C#N)=Cc1cccc(Br)n1)c1ccccc1	1320 nM (active)
CN(C)CCCN=c1c2ccccc2n(C)c2[nH]c(=O)n(C)c(=O)c12	3720 nM (active)
Nc1ccccc1NC(=O)c1ccc(CNC(=O)OCc2cccnc2)cc1	418 nM (active)
O=C(C=Cc1cccc(S(=O)(=O)Nc2ccccc2)c1)NO	762 nM (active)

Query CN(c1ncccc1CNc1nc(Nc2ccc3c(c2)CC(=O)N3)ncc1C(F)(F)F)S(C)(=O)=O yields Potency of 2640 nM (active)

Query CNC(=O)CN1CCC(Oc2cc3c(Nc4cccc(Cl)c4F)ncnc3cc2OC)CC1 yields Potency of 23.5 nM (active)

---

# Test description: Quantitative High-Throughput drug screen in 47 multiple myeloma cell lines against the NCATS MIPE library collection: L363_DSMZ cell viability assay (AID 1918984); further: nearly all actives have a fitted effect of over 40% in size; further: potency means the concentration at half of the fitted maximal effect
# Assay context: L363 myeloma viability, CellTiter-Glo ATP luminescence, 48 h; series mostly up to 45.8 µM
# Description: PI: Beverly A. Mock Ph.D. Laboratory of Cancer Biology and Genetics, Center for Cancer Research, National Cancer Institute, National Institute of Health, Bethesda, Maryland […] 5; Detector; 425V; Luminescence; Viewlux PerkinElmer. […] 1. […] Briefly, the corresponding myeloma cell lines were screened in 1,536-well plates with 500 cells, 5-uL per well for inhibition of cell viability (assessed by measuring ATP levels with CellTiterGlo). […]
Inconclusive results are not listed. Activity calls are given as the source filed them. Calls come from the whole dose curve; as a rule, active = well fitted cell-killing curve with a large enough effect; inconclusive = small, poorly fitted or top-dose-only effect, or effect the other way; inactive = no such curve, though single readings can be large or run the other way.
Metric name: Potency

Use the examples below as a reference point.
Compound	Potency
CC1(O)CC(c2nc(-c3ccc4ccc(-c5ccccc5)nc4c3)c3c(N)nccn23)C1 (centres undefined)	0.662 µM (active)
CNC(=O)c1c(F)cccc1Nc1nc(Nc2cc3c(cc2OC)CCN3C(=O)CN(C)C)nc2[nH]ccc12	inactive
CC(C)(C)OC(=O)Nc1ccc(-c2cc(C(=O)NCCCCCCC(=O)NO)no2)cc1	0.469 µM (active)
CCN(CC)CCNC(=O)c1ccc2nc(-c3ccccc3)c(-c3ccc(CN4CCC(n5c(=O)[nH]c6ccccc65)CC4)cc3)nc2c1	0.418 µM (active)
O=C(O)CO.[NH2-].[NH2-].[Pt+2]	inactive
CNC(=O)c1ccccc1Nc1nc(Nc2ccc(N3CCOCC3)cc2OC)ncc1Cl	0.132 µM (active)
CNC(=O)c1cc(Oc2ccc(NC(=O)Nc3cc(C(C)(C)C)nn3-c3ccc4ncccc4c3)c(F)c2)ccn1	18.7 µM (active)
OCc1ccc(-c2ccc(-c3ccc(CO)s3)o2)s1	inactive

Lab note: next compound to report on.
Query COc1ccc(C(=O)CC2(O)C(=O)Nc3c(Cl)ccc(Cl)c32)cc1 (centres undefined) yields Potency of 1.66 µM (active)
